B1: INTS3 (parent)
chain: KKREFRFHPIKETVVEEPVDITPY

# Variants of: B1
# method summary: protein stability index of a GFP-peptide fusion (GPS, HEK-293T) (PSI 1-6); higher = more stable;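 note: lentivirally expressed fusions sorted by FACS into six bins by GFP to DsRed ratio, PSI derived from sequencing read proportions per bin multiplied by bin number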
# details: c terminus: a fixed tail appended

var: K11S
protein stability index: 2.31
--
var: P18D
protein stability index: 2.12
--
var: T22R
protein stability index: 1.99
--
var: E12I
protein stability index: 2.61
--
var: V19C
protein stability index: 2.01
--
var: K2W
protein stability index: 2.03
--
var: K2Q
protein stability index: 2.17
--
var: K2F
protein stability index: 2.08
--
var: H8I
protein stability index: 2.8
--
var: E4P
protein stability index: 2.62
--
var: E16S
protein stability index: 1.82
--
var: R3G
protein stability index: 1.72
--
var: R6Q
protein stability index: 4.23
--
var: P23Y
protein stability index: 2.87
--
var: T13A
protein stability index: 1.92
--
var: I21V
protein stability index: 2.63
--
var: I10K
protein stability index: 2.02
--
var: R6Y
protein stability index: 3.66
--
var: V19S
protein stability index: 2.25
--
var: I21M
protein stability index: 1.7
--
var: E4D
protein stability index: 2.06
--
var: P23I
protein stability index: 1.5
